System: human gastric cancer strain GSU
Format: cell-based
Method: A test compound was dispensed into a U-bottom 384-well plate as 40 nL serially diluted dimethyl sulfoxide solutions using a liquid handler Echo (LABCYTE). […] Seven days later, 20 µL of CellTiter-Glo (registered trademark) (Promega) was added to each well and luminescence was measured.
pIC50: −log10 of the molar value.
Label 1 (yes) when pIC50 >= 9; otherwise 0 (no).

[[record]]
structure_as_smiles = "CCC[C@H]1C(=O)N[C@@H]([C@@H](C)CC)C(=O)N(C)CC(=O)N(C)[C@H]2C/C=C\\CCN(C2=O)[C@@H](Cc2ccc(C(F)(F)F)cc2)C(=O)N(C)CC(=O)N[C@@H](CCc2ccc(C(F)(F)F)c(Cl)c2)C(=O)N2CC3(CC3)C[C@H]2C(=O)NC2(CCC2)C(=O)N(C)[C@@H](C(CC)CC)C(=O)N(C)[C@H](C(=O)N(C)C)CC(=O)N1C"
class_name = "0 (no)"

[[record]]
structure_as_smiles = "CCC[C@H]1C(=O)N[C@@H]([C@@H](C)CC)C(=O)N(C2CC2)CC(=O)N(C)[C@H]2C/C=C\\CCN(C2=O)[C@@H](Cc2ccc(C(F)(F)F)cc2)C(=O)N(C)CC(=O)N[C@@H](CCc2cc(F)c(C(F)(F)F)c(F)c2)C(=O)N2C[C@H](OCC)C[C@H]2C(=O)NC2(CC(C)(C)C2)C(=O)N(C)[C@@H](CC(C)(C)C)C(=O)N(C)[C@H](C(=O)N(C)C)CC(=O)N1C"
class_name = "0 (no)"

[[record]]
structure_as_smiles = "CCO[C@@H]1C[C@H]2C(=O)OC3(CCC3)C(=O)N(C)[C@@H](C3CCCC3)C(=O)N(C)[C@H](C(=O)N(C)C)CC(=O)N(C)[C@@H]([C@@H](C)OC)C(=O)N[C@@H]([C@@H](C)CC)C(=O)N(C)CC(=O)N(C)[C@H]3C/C=C\\CCN(C3=O)[C@@H](Cc3ccc(C)cc3)C(=O)N(C)CC(=O)N[C@@H](CCc3ccc(C(F)(F)F)c(OC)c3)C(=O)N2C1"
class_name = "1 (yes)"

[[record]]
structure_as_smiles = "CCC(CC)[C@H]1C(=O)N(C)[C@H](C(=O)N(C)C)CC(=O)N(C)[C@@H](COC)C(=O)N[C@@H]([C@@H](C)CC)C(=O)N(C)CC(=O)N(C)[C@H]2C/C=C\\CCN(C2=O)[C@@H](Cc2ccc(C)cc2)C(=O)N(C)CC(=O)N[C@@H](CCc2ccc(C(F)(F)F)c(Cl)c2)C(=O)N2CC3(CC3)C[C@H]2C(=O)NC2(CC(C)(C)C2)C(=O)N1C"
class_name = "0 (no)"


# input for lookup
Query: Does the molecule C#CC[C@H]1C(=O)N[C@@H]([C@@H](C)CC)C(=O)N(C)CC(=O)N(C)[C@H]2C/C=C\CCN(C2=O)[C@@H](Cc2ccc(C(F)(F)F)cc2)C(=O)N(C)CC(=O)N[C@@H](CCc2ccc(C(F)(F)F)c(Cl)c2)C(=O)N2C[C@H](OCC)C[C@H]2C(=O)N(C)C2(CCC2)C(=O)N(C)[C@@H](C2CCCC2)C(=O)N(C)[C@H](C(=O)N(C)C)CC(=O)N1C have recorded pIC50 that is 9 or more?
Reply: 1 (yes)

* * *

Target: GDP-bound KRAS wild-type protein (Homo sapiens, UniProt P01116)
Sequence (P01116 1-188 isoform P01116-2): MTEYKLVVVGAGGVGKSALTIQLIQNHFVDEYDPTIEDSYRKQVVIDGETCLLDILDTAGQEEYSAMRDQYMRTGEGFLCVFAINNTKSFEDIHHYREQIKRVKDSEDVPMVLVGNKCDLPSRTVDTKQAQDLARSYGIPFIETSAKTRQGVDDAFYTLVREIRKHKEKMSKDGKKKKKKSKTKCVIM
Test: Binding to KRAS by surface plasmon resonance (SPR), dissociation constant KD
Settings: 1:1 binding model
PROPERTY LABEL: log10(Kd) (log10 of the value in nM)
Units before log transform: nM; reported quantity: Kd; transform: log10.

[[record]]
structure_as_smiles = "CCC[C@H]1C(=O)N[C@@H](CC(C)C)C(=O)N(CC)CC(=O)N(C)[C@H]2C/C=C\\CCN(C2=O)[C@@H](Cc2ccc(C)cc2)C(=O)N(C)CC(=O)N[C@@H](CCc2ccc(C(F)(F)F)c(Cl)c2)C(=O)N2C[C@H](OCC)C[C@H]2C(=O)NC2(CC(C)(C)C2)C(=O)N(C)[C@@H](C2CCCC2)C(=O)N(C)[C@H](C(=O)N(C)C)CC(=O)N1C"
val = 0.66

[[record]]
structure_as_smiles = "CCO[C@@H]1C[C@H]2C(=O)NC3(CC(C)(C)C3)C(=O)N(C)[C@@H](C3CCCC3)C(=O)N(C)[C@H](C(=O)N(C)CC)CC(=O)N(C)[C@@H](CC(C)C)C(=O)N[C@@H]([C@@H](C)CC)C(=O)N(C)CC(=O)N(C)[C@H]3C/C=C\\CCN(C3=O)[C@@H](Cc3ccc(C(F)F)cc3)C(=O)N(C)CC(=O)N[C@@H](CCc3ccc(C(F)(F)F)c(CC)c3)C(=O)N2C1"
val = -0.60

[[record]]
structure_as_smiles = "CC[C@H](C)[C@@H]1NC(=O)[C@H](COC)N(C)C(=O)C[C@@H](C(=O)N(C)C)N(C)C(=O)[C@H](C2CCCC2)N(C)C(=O)C2(CC(C)(C)C2)NC(=O)[C@@H]2C[C@@H](OC(C)C)CN2C(=O)[C@H](CCc2cc(F)c(C(F)(F)F)c(F)c2)NC(=O)CN(C)C(=O)[C@H](CC2CCCCC2)N2CC/C=C\\C[C@@H](C2=O)N(C)C(=O)CN(C2CC2)C1=O"
val = -0.02


Each of the following entries comes with a recorded value; kindly state log10(Kd) for each.
1. CCC[C@H]1C(=O)N[C@H]([C@@H](C)CC)C(=O)N2C[C@@H](OC)C[C@H]2C(=O)N(C)[C@H]2C/C=C\CCN(C2=O)[C@@H](Cc2ccc(C)cc2)C(=O)N(C)CC(=O)N[C@@H](CCc2ccc(C(F)(F)F)c(Cl)c2)C(=O)N2C[C@H](OCC)C[C@H]2C(=O)NC2(CCC2)C(=O)N(C)[C@@H](C2CCCC2)C(=O)N(C)[C@H](C(=O)N(C)C)CC(=O)N1C
2. CCC[C@H]1C(=O)N[C@@H]([C@@H](C)CC)C(=O)N(C)CC(=O)N(C)[C@H]2C/C=C\CCN(C2=O)[C@@H](Cc2ccc(C)cc2)C(=O)N(C)CC(=O)N[C@@H](CCc2ccc3ccn(C)c3c2)C(=O)N2C[C@H](OCC)C[C@H]2C(=O)NC2(CC(C)(C)C2)C(=O)N(C)[C@@H](C(CC)CC)C(=O)N(C)[C@H](C(=O)N(C)C)CC(=O)N1C
3. CCC[C@H]1C(=O)N[C@@H]([C@@H](C)CC)C(=O)N(C)CC(=O)N(C)[C@H]2C/C=C\CCN(C2=O)[C@@H](Cc2ccc(C)cc2)C(=O)N(C)CC(=O)N[C@@H](CCc2ccc(C(F)(F)F)c(OC)c2)C(=O)N2C[C@H](OCC)C[C@H]2C(=O)NC2(CC(C)(C)C2)C(=O)N(C)[C@@H](CC(C)C)C(=O)N(C)[C@H](C(=O)N(C)C)CC(=O)N1C

Reply:
1. -0.55
2. 1.15
3. -0.42

* * *

Target: GDP-bound KRAS wild-type protein (Homo sapiens, UniProt P01116)
Assay: Binding to KRAS by surface plasmon resonance (SPR), dissociation constant KD
Details: Single Cycle Kinetics, 1:1 binding model
Give measured pKd for each item. Keep answers brief.
Give bare numbers, as −log10 of the molar value.

[[record]]
structure_as_smiles = "CC[C@H](C)[C@@H]1NC(=O)[C@H](CC2CC2)N(C)C(=O)C[C@@H](C(=O)N(C)C)N(C)C(=O)[C@H](C2CCCC2)N(C)C(=O)C2(CCC2)N(C)C(=O)[C@@H]2C[C@@H](C)CN2C(=O)[C@H](CCc2cc(F)c(C(F)(F)F)c(F)c2)NC(=O)CN(C)C(=O)[C@H](Cc2ccc(C)cc2)N2CC/C=C\\C[C@@H](C2=O)N(C)C(=O)CN(C)C1=O"
val = 10.29

[[record]]
structure_as_smiles = "CCCOC[C@H]1C(=O)N[C@@H]([C@@H](C)CC)C(=O)N(C)CC(=O)N(C)[C@H]2C/C=C\\CCN(C2=O)[C@@H](Cc2ccc(C)cc2)C(=O)N(C)CC(=O)N[C@@H](CCc2cc(F)c(C(F)(F)F)c(F)c2)C(=O)N2C[C@H](CCC)C[C@H]2C(=O)NC2(CCC2)C(=O)N(C)[C@@H](C2CCCC2)C(=O)N(C)[C@H](C(=O)N(C)C)CC(=O)N1C"
val = 9.66


Query: Lab note: GDP-bound KRAS wild-type protein (Homo sapiens, UniProt P01116) assay, enter pKd for CC[C@H](C)[C@@H]1NC(=O)[C@H](CC)N(C)C(=O)C[C@@H](C(=O)N(C)C)N(C)C(=O)[C@H](C2CCCC2)N(C)C(=O)C2(CCC2)NC(=O)[C@@H]2CCCN2C(=O)[C@H](CCc2cc(F)c(C(F)(F)F)c(F)c2)NC(=O)CN(C)C(=O)[C@H](CC2CCC(F)(F)CC2)N2CC/C=C\C[C@@H](C2=O)N(C)C(=O)CN(C)C1=O here
Reply: 9.57
